assay: Half life in mouse; type: ADME, organism-based; conditions: in vivo
Outcome Measure: half-life (min)
Write the answer as a number in min, unit excluded.

// lookup half-life for O=C(O)Cc1nc(-c2ccc(-c3ccc(NC(=O)/C=C/c4ccc(Br)cc4)cc3Cl)o2)cs1
30
